What follows is literature data on pIC50 for the protein given by its sequence.
Target sequence: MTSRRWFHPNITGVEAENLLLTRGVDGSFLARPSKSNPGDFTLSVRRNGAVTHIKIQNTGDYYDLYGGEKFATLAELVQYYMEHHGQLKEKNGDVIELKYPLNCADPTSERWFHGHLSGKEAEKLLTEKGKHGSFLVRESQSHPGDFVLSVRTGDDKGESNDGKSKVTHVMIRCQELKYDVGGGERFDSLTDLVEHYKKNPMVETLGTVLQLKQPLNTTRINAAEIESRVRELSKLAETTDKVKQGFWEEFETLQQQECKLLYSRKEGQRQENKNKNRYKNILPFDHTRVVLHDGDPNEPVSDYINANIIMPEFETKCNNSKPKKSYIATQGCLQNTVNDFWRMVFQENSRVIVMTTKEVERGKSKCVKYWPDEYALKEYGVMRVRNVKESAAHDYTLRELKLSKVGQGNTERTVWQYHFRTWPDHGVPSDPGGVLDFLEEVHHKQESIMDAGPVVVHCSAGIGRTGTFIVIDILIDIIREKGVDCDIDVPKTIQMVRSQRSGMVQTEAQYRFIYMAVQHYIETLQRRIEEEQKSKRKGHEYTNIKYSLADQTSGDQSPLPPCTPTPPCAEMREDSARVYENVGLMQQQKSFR
FYI, pIC50 means -log10 of a concentration in mol per litre.

Consider the reported pIC50 for these molecules:
Cc1cc2c(cn1)CC1(CCN(c3nc(C)c(-c4cnn(C)c4C)n4nccc34)CC1)[C@@H]2N = 7.55
COc1nc(NCc2cn(C[C@H]3O[C@H](OC)[C@H](OCc4ccccc4)[C@@H](OCc4ccccc4)[C@H]3OCc3ccccc3)nn2)nc2c1ncn2Cc1cn(C[C@H]2O[C@H](OC)[C@H](OCc3ccccc3)[C@@H](OCc3ccccc3)[C@H]2OCc2ccccc2)nn1 = 4.45

Turning now to a further record.
Provide pIC50 value for the following molecule: "CC1(N)CCN(c2nc(CF)c(-c3cccc(Cl)c3Cl)c3nccn23)CC1"
7.28

====

What follows is literature data on pIC50 for Tyrosine-protein phosphatase non-receptor type 11 (Homo sapiens, UniProt Q06124).
Target: Tyrosine-protein phosphatase non-receptor type 11 (Homo sapiens, UniProt Q06124)
Sequence (Q06124 whole entry): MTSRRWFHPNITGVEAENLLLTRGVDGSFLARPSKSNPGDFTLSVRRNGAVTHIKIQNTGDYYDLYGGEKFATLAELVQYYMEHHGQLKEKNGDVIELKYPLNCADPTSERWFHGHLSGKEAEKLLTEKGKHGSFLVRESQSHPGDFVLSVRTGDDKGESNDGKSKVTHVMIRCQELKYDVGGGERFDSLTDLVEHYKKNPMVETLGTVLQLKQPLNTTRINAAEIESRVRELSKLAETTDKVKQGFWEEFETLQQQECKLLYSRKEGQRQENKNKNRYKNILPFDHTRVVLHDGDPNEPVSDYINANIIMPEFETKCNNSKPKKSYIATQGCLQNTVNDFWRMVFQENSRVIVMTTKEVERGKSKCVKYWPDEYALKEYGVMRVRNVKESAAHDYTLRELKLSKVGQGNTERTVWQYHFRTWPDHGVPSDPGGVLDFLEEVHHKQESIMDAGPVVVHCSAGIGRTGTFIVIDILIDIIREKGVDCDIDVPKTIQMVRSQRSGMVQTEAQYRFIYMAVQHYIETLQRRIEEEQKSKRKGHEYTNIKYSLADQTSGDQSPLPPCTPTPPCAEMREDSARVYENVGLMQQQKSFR
FYI, pIC50 means -log10 of a concentration in mol per litre.

CC1(CN)CCN(c2nnc(Sc3cccc(NC(=O)c4c(O)n5c(ccc6ccccc65)nc4=O)c3Cl)c(N)n2)CC1 = 7.82
O=C(O)C(=O)c1ccc(-n2cc(CO[C@H]3O[C@H](COCc4ccccc4)[C@@H](OCc4ccccc4)[C@H](OCc4ccccc4)[C@H]3OCc3ccccc3)nn2)cc1 = 4.26
Cc1nc(N2CCC(C)(N)CC2)n2ccnc2c1Sc1cccc(Cl)c1Cl = 7.19
Cc1nc(N2CCC3(CC2)Cc2ncccc2[C@H]3N)c2ccnn2c1-c1cc2c(cc1F)OCCO2 = 7.46

Turning now to a further record.
Provide pIC50 value for the following compound: CCCCCCCCCCCCC/C=C/[C@@]12C(=O)O[C@@H](C)[C@@H]1[C@H](C(C)=O)C(C(=O)O)=CC2CCCCCCCCCCCC (stereo not given in full)
5.77

====

What follows is literature data on IC50 for UniProt Q06124.

Consider the reported IC50 for these compounds:
Cc1nc(N2CCC(C)(N)CC2)n2ncnc2c1-c1cccc(Cl)c1Cl = > 1 µM
CO[C@H]1O[C@H](Cn2cc(CNc3nc(Cl)c4ncn(Cc5cn(C[C@H]6O[C@H](OC)[C@H](OCc7ccccc7)[C@@H](OCc7ccccc7)[C@H]6OCc6ccccc6)nn5)c4n3)nn2)[C@H](OCc2ccccc2)[C@H](OCc2ccccc2)[C@H]1OCc1ccccc1 = > 80 µM
COc1nc(NCc2cn(C[C@H]3O[C@H](OC)[C@H](OCc4ccccc4)[C@@H](OCc4ccccc4)[C@@H]3OCc3ccccc3)nn2)nc2c1ncn2Cc1cn(C[C@H]2O[C@H](OC)[C@H](OCc3ccccc3)[C@@H](OCc3ccccc3)[C@@H]2OCc2ccccc2)nn1 = > 80 µM
Cc1nc(N2CCC(C)(N)CC2)n2cnnc2c1-c1cccc(Cl)c1Cl = > 1 µM

Report value only: IC50, UniProt Q06124, "CO[C@H]1O[C@H](COCc2cn(-c3ccc(C(=O)C(=O)O)cc3)nn2)[C@@H](OCc2ccccc2)[C@H](OCc2ccccc2)[C@H]1OCc1ccccc1"
> 100 µM
